Test system: A498 renal
Test: NCI tumour cell line growth inhibition, 48 h; in the data active = GI50 below about 0.43 µM; inactive = the rest
Form entry, call: pick from true (1) (active), false (0) (inactive)

COc1ccc2c3ccnc(C(F)(F)F)c3n(CCCCN)c2c1 | false (0)
CC1=CC(C)=N/C(=N/S(=O)(=O)c2cc(C)c(Cl)cc2SCc2ccccc2)NN1 | false (0)
Cn1nc(C(F)(F)F)cc1-c1cc(Cl)c(OCc2ccc(Cl)cc2)c(-c2ccc(Cl)c(C(F)(F)F)c2)c1O | true (1)

Query: Hey, what did the test say about CCOC(=O)N1CCC(N=C2CSc3nnc(-c4cc(C(F)(F)F)cc(C(F)(F)F)c4)n3N2)CC1 ?
Response: false (0)

---

System: SF-539 CNS
Assay: NCI tumour cell line growth inhibition, 48 h
value type: TGI

Example results:
CC1(C)CCCCCC(O)C(O)CCC(C)(C)C1=O (centres undefined) | > 100 µM
Nc1nc(-c2ccc3c(c2)/C(=C\c2cc(Br)c(O)c(Br)c2)C(=O)N3)cs1 | > 25 µM
COC(=O)/C1=C/C=C\C[C@@]2(C)CC(c3ccoc3)OC(=O)[C@@H]2CC[C@H]1C (some centres undefined) | > 25 µM
CCCCCCC(=O)NC1=C(N2CC2)C(=O)C(NC(=O)CCCCCC)=C(N2CC2)C1=O | > 100 µM
COc1cc(C2c3cccc4cccc(c34)C3CCC(=O)N32)cc(OC)c1O (centres undefined) | > 50 µM

Query: Looking for the measured TGI of O=C(O)C(Cc1ccccc1)Cc1ccccc1 , can you help?
Response: > 100 µM

Query: Param item = N#Cc1ccc(-c2ccc(Cl)cc2)n(C2OC(CO)C(O)C(O)C2O)c1=S (centres undefined) ; retrieve measured TGI.
Response: > 100 µM

Query: Recorded TGI of Cc1nnc(N/N=C/c2ccc([N+](=O)[O-])o2)[nH]c1=O , please.
Response: > 51.6 µM

Query: May I ask what TGI has been recorded for CCOC(=O)c1ccc2nc3n(c2c1)C(c1c(F)cccc1F)SC3 (centres undefined) ?
Response: > 100 µM

---

Test system: PC-3 prostate
Experiment: NCI tumour cell line growth inhibition, 48 h
value type: TGI

CCOC(=O)C1=C(Nc2ccc(OC)cc2)C(N)=NC1=N | > 100 µM
C[C@]12CCC(=O)C=C1C[C@@H](O)[C@@H]1[C@@H]2CC[C@@]2(C)[C@H]1CC[C@]2(C)O | > 100 µM
C=CCc1c(O)c(C(=O)/C=C/c2ccc(Cl)cc2)c(OC)c2ccoc12 | 15.6 µM
COc1cc(OC)c(/C=C/C(=O)c2c(OC)cc(OC)cc2OC)c(OC)c1 | > 100 µM
Oc1ccc(-c2nc3cc(C(F)(F)F)ccc3s2)cc1 | 27.9 µM

// next entry
Query: // TGI lookup, key: COc1cc2nc(-c3cccs3)nc(Nc3ccccc3C(=O)NN)c2cc1OC
Response: > 100 µM

---

Test system: MCF7 breast
Test: NCI tumour cell line growth inhibition, 48 h
value type: GI50

Please review the following examples before continuing.
CCOC(=O)C1=C(Nc2ccc(OC)cc2)C(N)=NC1=N | 587 nM
COc1c(C(N)=O)cc(-c2ccc(Cl)cc2)cc1-c1ccc(S(N)(=O)=O)cc1 | 11900 nM
CN(C(=O)C(C)(C)C)c1ccccc1I(=O)=O | > 100000 nM
COc1ccc2c3ccnc(C(F)(F)F)c3n(CCCCN)c2c1 | 4610 nM
CCN(CC)CCOc1nc2ccccc2c2c1-c1ccc(OC)cc1C2=O | 345 nM

Consider now this further molecule.
Query: What value of measured GI50 is listed for CCN1CCN(c2ccc(NC(=O)Nc3nc4ccc(-c5ccccc5OC)cc4s3)cc2)CC1 ?
Response: 1310 nM
